System: BT-549
Assay: Cytotoxicity against human BT549 cells assessed as growth inhibition at 10 uM after 48 hrs by SRB assay
Format: functional
Conditions: BT-549, 48 h, read-out: GI

{"cpdSmiles": "O=C(Nc1ccc(NC2=NS(=O)(=O)c3ccccc32)cc1)Nc1cccc(Br)c1", "testTarget": "BT-549", "unitAbbreviation": "%", "inhibition of growth at 10 µM": 23}
{"cpdSmiles": "O=C(Nc1ccc(OC2=NS(=O)(=O)c3ccccc32)cc1)Nc1ccccc1Cl", "testTarget": "BT-549", "unitAbbreviation": "%", "inhibition of growth at 10 µM": 22}
{"cpdSmiles": "O=C(Nc1ccc(Cl)cc1)Nc1ccc2c(c1)C(Nc1ccc(Cl)cc1Cl)=NS2(=O)=O", "testTarget": "BT-549", "unitAbbreviation": "%", "inhibition of growth at 10 µM": 49}
{"cpdSmiles": "Cc1ccc(NC2=NS(=O)(=O)c3ccc(NC(=O)CCC(=O)O)cc32)cc1", "testTarget": "BT-549", "unitAbbreviation": "%", "inhibition of growth at 10 µM": -8}
{"cpdSmiles": "COc1ccc(NC(=O)Nc2ccc(NC3=NS(=O)(=O)c4ccccc43)cc2)cc1", "testTarget": "BT-549", "unitAbbreviation": "%", "inhibition of growth at 10 µM": 15}
{"cpdSmiles": "O=C(Nc1ccccc1)Nc1ccc(NC2=NS(=O)(=O)c3ccccc32)cc1", "testTarget": "BT-549", "unitAbbreviation": "%", "inhibition of growth at 10 µM": 3}
{"cpdSmiles": "O=C(Nc1ccccc1)Nc1ccc(OC2=NS(=O)(=O)c3ccccc32)cc1", "testTarget": "BT-549", "unitAbbreviation": "%", "inhibition of growth at 10 µM": 12}

---

Test system: Hs-578T
Assay: Cytotoxicity against human Hs578T cells assessed as growth inhibition at 10 uM after 48 hrs by SRB assay
Assay type: functional
Details: read-out: GI

{"cpdSmiles": "COc1ccc(NC(=O)Nc2ccc(NC3=NS(=O)(=O)c4ccccc43)cc2)cc1", "testTarget": "Hs-578T", "inhibition of growth at 10 µM (%)": -4}
{"cpdSmiles": "O=C(Nc1ccc(NC2=NS(=O)(=O)c3ccccc32)cc1)Nc1cccc(Br)c1", "testTarget": "Hs-578T", "inhibition of growth at 10 µM (%)": 35}
{"cpdSmiles": "Cc1ccc(NC2=NS(=O)(=O)c3ccc(NC(=O)CCC(=O)O)cc32)cc1", "testTarget": "Hs-578T", "inhibition of growth at 10 µM (%)": -2}
{"cpdSmiles": "O=C(Nc1ccccc1)Nc1ccc(OC2=NS(=O)(=O)c3ccccc32)cc1", "testTarget": "Hs-578T", "inhibition of growth at 10 µM (%)": 13}
{"cpdSmiles": "O=C(Nc1ccccc1)Nc1ccc(NC2=NS(=O)(=O)c3ccccc32)cc1", "testTarget": "Hs-578T", "inhibition of growth at 10 µM (%)": -9}
{"cpdSmiles": "O=C(Nc1ccc(Cl)cc1)Nc1ccc2c(c1)C(Nc1ccc(Cl)cc1Cl)=NS2(=O)=O", "testTarget": "Hs-578T", "inhibition of growth at 10 µM (%)": 9}
{"cpdSmiles": "O=C(Nc1ccc(OC2=NS(=O)(=O)c3ccccc32)cc1)Nc1ccccc1Cl", "testTarget": "Hs-578T", "inhibition of growth at 10 µM (%)": -1}
